Taken from the supplement of paper PMC9446081.

- System: Escherichia coli K-12 BW25113
- assay: relative growth (OD600 normalised to plate interquartile mean) (fraction); higher = less growth inhibition, active = 0.2 or less
- measurementContext: 50 µM; LB; incubation time: overnight (16-24 h)
The campaign covered roughly 39,000 compounds. About 220 (0.56%) showed activity. Many of the other results were omitted from the sample, so actives are more common in it than they were.
Parameter: relative growth. Scope: all listed entries.
Answer with the value's number alone.

molecule: C[C@H](CO)N1C[C@H](C)[C@@H](CN(C)Cc2ccc3c(c2)OCO3)Oc2ccc(NC(=O)CCCN(C)C)cc2CC1=O
relative growth: 0.975

Request: Query relative growth on Escherichia coli K-12 BW25113 for `C[C@@H]1CN([C@@H](C)CO)S(=O)(=O)c2ccc(C#CC3CC3)cc2O[C@@H]1CN(C)C(=O)C1CCCCC1`
Result: 1.01

Request: Then what about the molecule `CCS(=O)(=O)Nc1ccc2c(c1)C(=O)N(C)[C@@H]1CC[C@@H](CC(=O)NCc3ccc(OC)cc3)O[C@@H]1CO2` ?
Result: 1.01

Request: Then what about the molecule `Cn1nc(-c2ccccn2)nc2c(=O)n(C)c(=O)nc1-2` ?
Result: 0.933

Request: Then what about the molecule NCC1OC(OC2C(N)CC(N)C(OC3OC(CO)C(O)C(N)C3O)C2O)C(N)C(O)C1O.O=S(=O)(O)O (centres undefined) ?
Result: 0.0483

Request: Then what about the molecule `NC[C@H]1O[C@H](O[C@H]2[C@H](O)[C@@H](O[C@H]3O[C@H](CO)[C@@H](O)[C@H](N)[C@H]3O)[C@H](N)C[C@@H]2N)[C@H](N)[C@@H](O)[C@@H]1O` ?
Result: 0.0328

Request: Then what about the molecule `Cc1noc(C)c1NC(=O)N(C)C[C@@H]1Oc2c(NC(=O)Nc3ccc(C(F)(F)F)cc3)cccc2C(=O)N([C@@H](C)CO)C[C@@H]1C` ?
Result: 0.943

Request: Then what about the molecule `COc1ccc(NC(=O)N(C)C[C@H]2Oc3c(NS(=O)(=O)c4cn(C)cn4)cccc3C(=O)N([C@@H](C)CO)C[C@@H]2C)cc1` ?
Result: 0.995

Request: Then what about the molecule `CCc1c(C)[nH]c(=S)c(C#N)c1C` ?
Result: 1.01

* * *

- Test system: Escherichia coli K-12 BW25113;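 also: Wild-type cells incubated without shaking, value is the mean of two biological replicates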
- assay: relative growth (OD600 normalised to plate interquartile mean) (fraction); higher = less growth inhibition, active = 0.2 or less
- measurementContext: 50 µM; LB; incubation time: overnight (16-24 h)
About 220 (0.56%) of roughly 39,000 compounds showed activity. The list comes from a sample in which actives are over-represented; it also holds close analogues and randomly drawn compounds.
assayEndpoint: relative growth
Answer with the value's number alone.

Record excerpt, results attached:
compoundSmiles: C[C@@H]1CCCCO[C@H](CN(C)S(=O)(=O)c2ccc(F)cc2)[C@H](C)CN([C@@H](C)CO)C(=O)c2cc(NC(=O)Nc3ccc4c(c3)OCO4)ccc2O1
relative growth: 1

compoundSmiles: OC[C@@H](O)[C@@H](O)[C@@H](O)[C@@H](O)[C@@H](O)CO
relative growth: 1

compoundSmiles: COc1ccc([Si](C)(C)[C@@H]2[C@@H](CC(=O)N3CCC[C@H]3CO)O[C@]3(C(=O)N(Cc4cccc(N5CCCCC5=O)c4)c4ccccc43)[C@H]2C)cc1
relative growth: 1.02

compoundSmiles: C[C@@H]1CN([C@H](C)CO)C(=O)Cc2cc(NC(=O)Nc3ccc(F)cc3)ccc2O[C@@H]1CN(C)Cc1ccc(Cl)c(Cl)c1
relative growth: 1.02

Request: Item under review: `C=C1C(=O)O[C@@H]2/C=C(\CO[C@@H]3O[C@H](CO)[C@@H](O)[C@H](O)[C@H]3O)CC/C=C3\C[C@H](OC3=O)[C@@H]12` . Reported relative growth?
Result: 0.997

Request: Then what about the compound `Cc1ccc(S(=O)(=O)Nc2ccc3c(c2)C(=O)N([C@@H](C)CO)C[C@@H](C)[C@@H](CN(C)C(=O)Nc2cccc4ccccc24)OCCCC[C@@H](C)O3)cc1` ?
Result: 0.998

Request: Then what about the compound `C[C@H]1CN([C@@H](C)CO)C(=O)Cc2cc(NC(=O)Nc3ccccc3)ccc2O[C@H]1CN(C)Cc1ccc(Oc2ccccc2)cc1` ?
Result: 1.01
